Experiment: Rat pharmacokinetics, oral gavage
Type: in vivo, Sprague-Dawley rats
Details: female, Sprague-Dawley, rat, plasma, po, 60 mg/kg, rat, Female, PO/60 mg/kg, Mean ± SD; read-out: Cmax
observed.property: Cmax (µg/mL)
One number for each entry, in µg/mL.

## Task Look up and report measured Cmax for this entry: CC(C)(OCc1cc(-c2cccc(OC3CCC3)c2)n(-c2ccccc2N2CCC2)n1)C(=O)O [Compound 1]
## Result 113

---

Assay: Dog pharmacokinetics, powder in capsule
Format: in vivo, beagle dogs
Conditions: male, beagle, dog, plasma, po, 3 mg/kg, male beagle dogs, powder in capsule, mean
observed.property: MRT last (h)
Answers are plain numbers, in h.

## Task Look up and report measured MRT last for this entry: CC(C)(OCc1cc(-c2cccc(OC3CCC3)c2)n(-c2ccccc2N2CCC2)n1)C(=O)O [Compound 1]
## Result 5.39
